target: Human CD3εδ-Fc (human) (UniProt P04234); assay: KD of scFv-Fc or IgG on human CD3εδ-Fc; instrument not given
Sequence (chain, as listed by the source mutant, chain 1 of 2): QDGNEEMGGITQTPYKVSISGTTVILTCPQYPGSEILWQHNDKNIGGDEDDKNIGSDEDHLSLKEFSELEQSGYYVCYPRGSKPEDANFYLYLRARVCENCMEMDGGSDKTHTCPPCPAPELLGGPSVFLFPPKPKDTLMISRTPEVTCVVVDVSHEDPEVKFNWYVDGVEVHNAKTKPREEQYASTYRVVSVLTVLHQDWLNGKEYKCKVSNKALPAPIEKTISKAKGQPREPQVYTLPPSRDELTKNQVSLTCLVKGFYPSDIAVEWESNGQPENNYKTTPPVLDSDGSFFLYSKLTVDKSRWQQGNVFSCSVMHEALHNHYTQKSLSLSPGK
Sequence (P04234 22-105, stated change not applied, chain 2 of 2): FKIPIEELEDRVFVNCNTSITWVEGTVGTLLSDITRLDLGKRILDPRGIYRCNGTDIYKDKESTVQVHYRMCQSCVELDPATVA
measure_name: Kd (pM)
Express the result in pM but write the number alone.

Sample records with Kd:
binder	unit_info	Kd
ADI-46360 (antibody, V domains shown, also called Ab44) VH: QVQLVQSGAEVKKPGASVKVSCKASGFNIKDYYMHWVRQAPGQRPEWIGWIDLENANTVYDAKFQGRVTITRDTSASTAYMELSSLRSEDAAAYYCARDAYGRYFYDVWGQGTLVTVSS VL: DIVMTQSPDSLAVSLGERATINCKSSQSLLNARTGKNYLAWYQQKPGQPPELLIYWASTRESGVPDRFSGSGSGTDFTLTISSLQAEDVAVYYCTQSYFRRTFGGGTKVEIK	pM	970
ADI-45983 (antibody, V domains shown, also called Ab20) VH: QVQLVQSGAEVKKPGASVKVSCKASGFNIKDYYMHWVRQAPGQRLEWIGWIDLENANTVYDAKFQGRVTITRDTSAGTAYMELSSLRSEDTAVYYCARDAYGRYFYDVWGQGTLVTVSS VL: DIVMTQSPDSLAVSLGERATINCKSSQSLLNARTMKNYLAWYQQKPGQPPKLLIYAASTRESGVPDRFSGSGSGTDFTLTISSLQAEDVAVYYCAQSYFRRTFGGGTKVEIK	pM	230

Data request: Item under review: ADI-45974 (antibody, V domains shown, also called Ab10) VH: QVQLVQSGAEVKKPGASVKVSCKASGFNIKDYYMHWVRQAPGQRLEWIGWIDLENANTVYDAKFQGRVTITRDTSASTAYMELSNLRSEDTAVYYCARDAYGRYFYDVWGQGTLVTVSS VL: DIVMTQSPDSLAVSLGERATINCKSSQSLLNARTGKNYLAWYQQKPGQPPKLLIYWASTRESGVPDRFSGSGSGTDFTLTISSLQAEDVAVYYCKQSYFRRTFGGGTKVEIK . Reported Kd?
Data returned: 190
